These measurements were taken from patent US20240182563A1.

Shift % by entry:
STUDY TARGET: T1, human CNTN4 antigen expressed on the cell membrane of 293FT cells (human) (UniProt Q8IWV2)
T1 sequence (looked up): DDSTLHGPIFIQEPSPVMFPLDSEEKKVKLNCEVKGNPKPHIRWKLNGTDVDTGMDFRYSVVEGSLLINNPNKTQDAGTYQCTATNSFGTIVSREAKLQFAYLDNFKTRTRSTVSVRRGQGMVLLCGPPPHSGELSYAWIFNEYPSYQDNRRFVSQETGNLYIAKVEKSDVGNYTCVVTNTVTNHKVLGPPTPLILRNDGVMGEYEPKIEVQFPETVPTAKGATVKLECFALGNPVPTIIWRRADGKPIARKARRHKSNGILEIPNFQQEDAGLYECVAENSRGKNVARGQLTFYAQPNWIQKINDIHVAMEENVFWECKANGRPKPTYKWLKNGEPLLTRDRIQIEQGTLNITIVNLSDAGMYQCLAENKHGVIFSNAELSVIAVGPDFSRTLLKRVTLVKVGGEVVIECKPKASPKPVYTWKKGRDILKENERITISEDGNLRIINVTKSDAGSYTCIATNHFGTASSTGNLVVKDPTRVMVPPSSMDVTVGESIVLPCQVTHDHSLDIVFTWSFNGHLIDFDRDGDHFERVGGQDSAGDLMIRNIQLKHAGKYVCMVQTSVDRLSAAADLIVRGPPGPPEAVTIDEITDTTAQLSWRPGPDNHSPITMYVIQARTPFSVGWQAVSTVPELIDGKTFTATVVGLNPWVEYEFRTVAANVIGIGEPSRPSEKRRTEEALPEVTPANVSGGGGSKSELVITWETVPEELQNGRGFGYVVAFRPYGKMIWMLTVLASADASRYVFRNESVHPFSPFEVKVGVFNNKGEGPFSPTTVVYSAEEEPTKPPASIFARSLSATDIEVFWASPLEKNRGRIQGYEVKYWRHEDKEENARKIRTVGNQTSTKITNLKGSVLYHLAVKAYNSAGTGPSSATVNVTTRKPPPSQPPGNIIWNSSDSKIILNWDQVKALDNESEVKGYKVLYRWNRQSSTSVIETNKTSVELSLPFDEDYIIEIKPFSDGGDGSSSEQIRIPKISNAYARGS
ASSAY PROTOCOL: FACS, 293FT cells transfected with human CNTN4, 40 ug/mL, anti-hCk-PE
Give just the numeric value; % need not be written.

BINDER	UNIT ABBREV	Shift %
anti-CNTN4 scFv-hCk S131 (scFv, part only; not given: linker and kappa constant region, not shown: a dimerising Fc or GST) scFv, part: ALTQPSSVSANLGGTVKITCSGGGSSYYGWYQQKSPGSAPVTLIYQNTNRPSNIPSRFSGSGSGSTGTLTITGVRAEDEAVYYCGGYDGSTDVFGAGTTLTVLAVTLDESEGGLQTPGGALSLVCKASGFTFSSFNMFWVRQAPGKGLEYVAEISGGGGSTWYAPAVKGRATISRDNGQSTVRLQLNNLRAEDTGTYYCAKSADTWSYGAATIDAWGHGTEVIVSS	%	16.6

For the next question, use this binder.
What measured Shift % goes with anti-CNTN4 scFv-hCk S132 (scFv, part only; not given: linker and kappa constant region, V domains shown, not shown: another chain or arm of the molecule; a dimerising Fc or GST; small tags and cut ends) VL: ALTQPSSVSANPGETVKITCSGGGSSTYYGWYQQKSPGSAPVTVIYNNNNRPSDIPSRFSGSGSGSTGTLTITGVRAEDEAVYYCGGYDGSTDVFGAGTTLTVL VH: AVTLDESGGGLQTPGGALSLVCKASGFTFSSFNMFWVRQAPGKGLEYVAEISGGGGSTWYAPAVKGRATISRDNGQSTVRLQLNNLRAEDTGTYYCAKSADTWSYGAATIDAWGHGTEVIVSS ?
16.1
